Cited source for all entries: patent US9688764B2

System: T47D cells
procedure details: Cell viability (cell kill) assay
Type: cell-based
study conditions: T47D; Table 19
# % Kill listing for each entry below
Give the value, in units of %, as a plain number.

Examples from the recorded data:
| molecule | measurement unit | % Kill |
| --- | --- | --- |
| H1H6765P-mc-VC-PAB-MMAE (conjugate) VH: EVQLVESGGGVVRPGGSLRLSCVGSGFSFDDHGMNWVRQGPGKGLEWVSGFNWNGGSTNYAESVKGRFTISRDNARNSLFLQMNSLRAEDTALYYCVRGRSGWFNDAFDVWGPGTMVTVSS VL: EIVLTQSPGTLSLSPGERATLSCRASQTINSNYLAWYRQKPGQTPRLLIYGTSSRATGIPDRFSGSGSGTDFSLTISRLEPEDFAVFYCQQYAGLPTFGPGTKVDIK | % | 90 |
| H1H6953N-mc-VC-PAB-MeNHC3-May (conjugate) VH: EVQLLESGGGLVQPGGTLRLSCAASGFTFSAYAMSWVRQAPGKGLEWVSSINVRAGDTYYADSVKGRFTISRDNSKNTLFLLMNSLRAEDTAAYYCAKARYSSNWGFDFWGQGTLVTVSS VL: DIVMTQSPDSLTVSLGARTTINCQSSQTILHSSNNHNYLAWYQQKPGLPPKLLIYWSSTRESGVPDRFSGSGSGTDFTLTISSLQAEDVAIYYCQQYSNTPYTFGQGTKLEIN | % | 90 |
| H1H6975P-SMCC-DM1 (conjugate) VH: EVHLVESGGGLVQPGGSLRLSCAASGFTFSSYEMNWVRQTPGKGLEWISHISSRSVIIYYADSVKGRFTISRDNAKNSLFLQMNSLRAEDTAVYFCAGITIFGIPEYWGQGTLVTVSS VL: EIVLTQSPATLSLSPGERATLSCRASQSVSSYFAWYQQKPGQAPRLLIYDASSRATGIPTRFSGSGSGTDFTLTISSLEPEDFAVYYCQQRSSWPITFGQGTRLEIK | % | 100 |

Req: Recorded % Kill for H1H6782P-SMCC-DM1 (conjugate) VH: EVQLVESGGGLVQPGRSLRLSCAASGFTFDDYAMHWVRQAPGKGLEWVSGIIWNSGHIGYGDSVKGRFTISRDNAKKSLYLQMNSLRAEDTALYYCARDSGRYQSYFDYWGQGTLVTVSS VL: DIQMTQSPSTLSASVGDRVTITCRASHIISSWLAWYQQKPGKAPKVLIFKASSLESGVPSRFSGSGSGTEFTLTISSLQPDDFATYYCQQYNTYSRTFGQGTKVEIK , please?
Resp: 100

Req: What does the data say about its % Kill? Entry: H1H6765P-SMCC-DM1 (conjugate) VH: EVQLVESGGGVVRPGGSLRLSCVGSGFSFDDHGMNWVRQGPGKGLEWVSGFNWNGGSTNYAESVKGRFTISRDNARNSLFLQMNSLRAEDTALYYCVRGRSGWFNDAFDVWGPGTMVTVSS VL: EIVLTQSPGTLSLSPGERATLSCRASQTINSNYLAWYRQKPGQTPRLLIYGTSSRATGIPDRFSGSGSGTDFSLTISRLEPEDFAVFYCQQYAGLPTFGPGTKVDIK
Resp: 90

Req: Find the recorded % Kill belonging to H1H6975P-mc-VC-PAB-MMD (conjugate) VH: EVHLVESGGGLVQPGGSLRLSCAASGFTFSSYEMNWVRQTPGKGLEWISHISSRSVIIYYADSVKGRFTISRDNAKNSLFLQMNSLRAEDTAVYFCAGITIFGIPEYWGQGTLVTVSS VL: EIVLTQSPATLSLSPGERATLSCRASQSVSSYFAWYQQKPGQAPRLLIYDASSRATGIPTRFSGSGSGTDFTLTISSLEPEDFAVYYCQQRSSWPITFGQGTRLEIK and report it.
Resp: 90

Req: Tell me the measured % Kill of H1H6782P-mc-VC-PAB-MeNHC3-May (conjugate) VH: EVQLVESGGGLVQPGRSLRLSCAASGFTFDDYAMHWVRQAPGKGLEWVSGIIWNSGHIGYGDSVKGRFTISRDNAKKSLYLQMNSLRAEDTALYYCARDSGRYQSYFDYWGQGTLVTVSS VL: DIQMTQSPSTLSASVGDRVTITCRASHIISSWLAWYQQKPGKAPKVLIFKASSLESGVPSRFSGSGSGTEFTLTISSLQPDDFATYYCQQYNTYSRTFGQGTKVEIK , please.
Resp: 90
